# TEST: amyloid nucleation score (Sup35N fusion, yeast selection) (log enrichment); library NNK2; higher = more nucleation; inactive = no reads after selection;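 further: zero at mode of non-aggregating sequences after 7 days selection at 30°C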
Assign label 1 to entries whose amyloid nucleation score meets or exceeds 0.5; assign label 0 to the rest.

# SUBSTANCE, CLASS ASSIGNMENT
rows = [
    ("LSSGEYVSSGMRGTSCEKSK", "label 0"),
    ("GLGLICLQMGGFCMWRFRRM", "label 0"),
    ("TLVNCVSMWWALHSVANGNG", "label 1"),
    ("YFISDEIVQSNIFSLIGWFC", "label 1"),
    ("NITDDRMSSWIRFVILVSTV", "label 0"),
    ("RCSCPANGFLMGQLAVMS", "label 1"),
    ("EASKGHISTVLWLGGVIS", "label 0"),
    ("RHVYWSRSPPRTYGKEWTKG", "label 1"),
    ("SCTPGLHQGCRCSVLLWEHR", "label 1"),
    ("IKHVEDASGKRTDSRLFTRD", "label 0"),
    ("KFRNCVRKDFLSMHHFSVVF", "label 0"),
    ("GWIVSLFVV", "label 1"),
    ("DDSNCNNHGRVDDKVR", "label 1"),
    ("DGPIPLLSGMGHGGRYLWCV", "label 1"),
    ("AGDLKRLSSQQLM", "label 1"),
    ("CCFCFDNLIIPRDCYANSDN", "label 1"),
    ("CVFAHFCCLFASMMPCKFSW", "label 0"),
    ("NVKICFCSVMSSTCRYNRT", "label 1"),
    ("LVRSVFIRYCISIPCRTRVL", "label 0"),
    ("FWIDYLVKFCCDLRMRMILK", "label 1"),
    ("GVIWVCIRCDHGGTAMRLLW", "label 1"),
    ("KLYVAIMNSWILGKVGSYNG", "label 1"),
    ("MGNSYIEVRSLYR", "label 0"),
    ("TLCLMVVFKSRYCSFRIHMM", "label 0"),
    ("KRFAIPEHTLTTYRQLA", "label 0"),
    ("IPFQEWNSMFIKLSELTVES", "label 1"),
    ("EFLRRD", "label 0"),
    ("TGHRTRVQTELLAFIAQVN", "label 0"),
    ("YYSISGISFWFSK", "label 1"),
    ("TFNKLYYSSVACLCRLGHSR", "label 1"),
    ("INSASESKGKGIILSTNGDS", "label 0"),
    ("IYFESPPTRWGGYVADNCEY", "label 0"),
]

###

# TEST: amyloid nucleation score (Sup35N fusion, yeast selection) (log enrichment); library NNK3; higher = more nucleation; inactive = no reads after selection

# SUBSTANCE, amyloid nucleation score
data = [
    ("CLRMGYVLRSRWERLDCLKW", "inactive"),
    ("RMPYKMQFFCNLWLSVYSTL", "inactive"),
    ("AMPMATLTVPMWLLILFVTF", "inactive"),
    ("YSIMFRVLVGT", "inactive"),
    ("RSGFAKMNAILLYFASFLL", "inactive"),
    ("TLDGLLRASMYSLIYWLVLM", "inactive"),
    ("ANCINRV", "inactive"),
    ("LSCVLTVGTKTLFRAQMTQV", "inactive"),
    ("IDRSLLSGFSNLHICSICCT", 1.2),
    ("RFTYGDRCMKMRMPNFETAH", "inactive"),
    ("DNLPTRRYLNKNDWRGASYL", "inactive"),
    ("FGKGVCRLD", "inactive"),
    ("SDGIYV", "inactive"),
    ("SIHCIYSWR", 1.27),
    ("RFIVANHLGGVYLQE", "inactive"),
    ("CFAKCFMKNLRSIGRVFLMG", "inactive"),
    ("INVDGKNNPSRREKTISMGG", "inactive"),
]

###

# TEST: amyloid nucleation score (Sup35N fusion, yeast selection) (log enrichment); library NNK3; higher = more nucleation; inactive = no reads after selection
MEASUREMENT LABEL: amyloid nucleation score

# SUBSTANCE, MEASUREMENT
rows = [
    ("SKLWSYWDLSWLTLKVGWLR", "inactive"),
    ("RATKEGKRLDML", -0.725),
    ("VKTRTIRVSH", "inactive"),
    ("GWGVHWFYIMVINHLF", "inactive"),
    ("SVFQWHPFIESKGNLLSTVK", "inactive"),
    ("LFADWQG", "inactive"),
    ("PELCQCSHCNLLFLWTYYIA", -0.052),
    ("FLLVLWSVFLTGT", "inactive"),
    ("RSVSDYSSNCRAHCLVDDDT", "inactive"),
    ("FVIVYAMCKLYLMEKMRLIS", "inactive"),
    ("MTYGLFVIYMRGGSNLMLHV", "inactive"),
    ("EDVYFSYGDVWMVIGALTTV", "inactive"),
    ("GSLKPMFDRSCFFNIKAIML", "inactive"),
    ("VYKWSNVLM", "inactive"),
    ("CGLDSCLVICQYK", 0.584),
    ("LDYAFCILNNNCREC", 3.05),
    ("RCLPMG", "inactive"),
    ("WPSYSRLQTDFRGTGFFFRG", "inactive"),
]

###

# TEST: amyloid nucleation score (Sup35N fusion, yeast selection) (log enrichment); library NNK2; higher = more nucleation; inactive = no reads after selection
Kindly return True if reported amyloid nucleation score is no lower than 0.7; return False if it is lower.

# SEQUENCE CHAIN, CLASS ASSIGNMENT
rows = [
    ("LCCRCIKVIAALKLNIENHQ", "True"),
    ("CCLYYHMIKAWDTTGVRLVN", "False"),
    ("WLTKLDRTSLEGSEYFKKML", "False"),
    ("RRYAKNMFRDLGWPVPTRSD", "True"),
    ("KRWCRGSE", "False"),
    ("MGLRCWKIIMWNYSRKLHQC", "False"),
    ("SLRIYGYMDRKSPKESSNFR", "True"),
    ("DRAVLRGVVSDNSV", "False"),
    ("LYRQTLLSHL", "False"),
    ("NFIFDFVV", "False"),
    ("GNNIVDPMLYLEGFKFSPIP", "False"),
]

###

Listed next: entries and their corresponding amyloid nucleation score.
# TEST: amyloid nucleation score (Sup35N fusion, yeast selection) (log enrichment); library NNK2; higher = more nucleation; inactive = no reads after selection

# SUBSTANCE, amyloid nucleation score
data = [
    ("GRGYAAVLNWRLFDKDRGRI", 0.035),
    ("SLSHRADACVTS", -0.647),
    ("LANLTSWSILMAKRRLRLTL", 1.06),
    ("NRAVGLLRYTMVMGT", 0.026),
    ("AYLPHAHTT", -0.154),
    ("IPFIRMFVSFNNLQSISIPD", 5.53),
    ("FPTIDRQVFDVRR", -1.17),
    ("PRRNTADCIGCTDRTGRRRC", 0.6),
    ("GISVICLYGVQYSDVGGVNL", 5.1),
    ("SFGNYRSVWYVTDVFAHIHL", 8.34),
    ("SSMDFVHCSWAVWHLGSFLC", -1.01),
    ("PRKDLPEYSLYSDLEPLVCN", -1.25),
    ("IVCPFKT", -1.35),
    ("STPIHDIFTPTLDRV", -0.08),
]

###

Recorded amyloid nucleation score values for a group of substances are listed next.
# TEST: amyloid nucleation score (Sup35N fusion, yeast selection) (log enrichment); library NNK2; higher = more nucleation; inactive = no reads after selection

# SUBSTANCE, amyloid nucleation score
measured = [
    ("LLPYSSHN", 4.9),
    ("NTLRMIPADFPSGRLEQTKV", 0.552),
    ("RDVFVLCWDFFMVERCRDRC", 5.85),
    ("LTYIRMQVHLVDYDRDALG", -1.32),
    ("LTSSSSSQVWGLYVYDGHLK", -0.045),
    ("RSFYIAVSYMGCICIMPIRR", 2.89),
    ("VAVTMHYDNFHCLLCCCSTL", 8.38),
    ("GRTYGFSSRVVMRRGSCDFG", 0.913),
    ("VSVDSVDAIFRK", 0.489),
    ("YRVFRFCNMASYLVSICHNG", -1.2),
    ("YIHVVNTVSAVGVRRGSVGT", 0.031),
    ("LNTLDNN", -0.047),
    ("SLNPTRSWMRFNINKAHFLL", -0.204),
    ("LFCVRSRLGVGCYRIWG", 5.36),
    ("ILISLESSPISGMKCVLQRF", 2.85),
    ("SFYSVTSPRWH", 1.92),
    ("LMFTCVMSFWRLSVRVILNY", 0.277),
]
